System: A549 cells
Assay: Cytotoxicity against A549 cells, Alamar Blue
Assay type: cell-based
Details: Homo sapiens, A549, 65 h; Supplementary Table 1; compound 0.5 mM; percentage of controls (n=1)
Method: Cytotoxic effects against HeLa and A549 cells were determined in a similar manner. Briefly, the cells were cultured in DMEM supplemented with 10% FCS and 2 mM L-Glutamine. Cells were plated at initial cell concentration of 2 × 10^4 cells/well and incubated with the compounds for ~65 hours prior to addition of Alamar Blue solution for a further 5 hours.
Recorded metric: viability at 500 µM

Task: What does the record list as viability at 500 µM for CC(=O)c1ccc(F)c(F)c1 [compound 234, 1‐(3,4‐difluorophenyl)ethan‐1‐one] ?
Result: 73.9%

Task: What does the record list as viability at 500 µM for Cn1ccc2cc(N)ccc21 [compound 158, 1‐methyl‐1H‐indol‐5‐amine] ?
Result: 59.3%

Task: What does the record list as viability at 500 µM for COC(=O)c1ccccc1Cl [compound 352, methyl 2‐chlorobenzoate] ?
Result: 76.4%

Task: What does the record list as viability at 500 µM for COc1ccc(Cl)cc1N [compound 246, 5‐chloro‐2‐methoxyaniline] ?
Result: 113%
